tested on: MDA-468 cells; assay: MTT cell viability assay, MDA-468 breast cancer cells; type: cell-based; settings: MDA-468, 96 hours, cisplatinum 1-25 μM
PROPERTY: IC50 (nM)

> print(dat)
                         molecule  property  numeric.readout
1  N.N.[Cl][Pt][Cl] [cisplatinum]      IC50              880

---

test system: MDANQ01 cells; experiment: MTT cell viability assay, MDANQ01 breast cancer cells; assay type: cell-based; conditions: MDANQ01, 96 hours, cisplatinum 1-25 μM
pIC50: −log10 of the molar value.
PROPERTY: pIC50

> print(dat)
                         molecule  numeric.readout
1  N.N.[Cl][Pt][Cl] [cisplatinum]             6.20
